# targetEntity: dengue virus NS5 polymerase domain (DENVpol, serotype 2, New Guinea C strain) (Dengue virus type 2, UniProt P14340)
# Construct: The enzyme activity of dengue virus NS5 polymerase domain
# experimentalDetails: Dengue virus polymerase inhibition assay
pIC50 overview
Convention used: pIC50 is expressed as -log10 of the molar concentration.

**Q:** Please report pIC50 for the following compound: O=c1ccn([C@@H]2O[C@H](COP(=O)(O)OP(=O)(O)OP(=O)(O)O)[C@@H](O)[C@]23CCS3)c(=O)[nH]1
**A:** 4.30

**Q:** Please report pIC50 for the following compound: Nc1ccn([C@@H]2O[C@H](COP(=O)(O)OP(=O)(O)OP(=O)(O)O)[C@@H](O)[C@]23CCS3)c(=O)n1
**A:** 5.54

**Q:** Please report pIC50 for the following compound: Nc1ccn([C@@H]2O[C@](F)(COP(=O)(O)OP(=O)(O)OP(=O)(O)O)[C@@H](O)[C@]23CCS3)c(=O)n1
**A:** 5.61

====

# Test system: DENV-2/16681/eGFP
# experimentalDetails: Antiviral activity against DENV-2/16681/eGFP in Vero cells (eGFP read-out)
# Type: cell-based, dengue virus serotype 2
# condition: Dengue virus, DENV2, Vero, 72 h, read-out: DENV Vero (EC50, μM)
quantityKind: EC50

**Q:** Please report EC50 for the following compound: CCCCOC(=O)[C@H](C)NP(=O)(OC[C@@]1(F)O[C@@H](n2ccc(=O)[nH]c2=O)[C@@]2(CCS2)[C@@H]1O)Oc1ccccc1 (stereo partly shown)
**A:** 35 µM

**Q:** Please report EC50 for the following compound: O=c1ccn([C@@H]2O[C@]3(F)CO[P@](=O)(NC4CCC4)O[C@H]3[C@]23CCS3)c(=O)[nH]1 [Compound 40a]
**A:** > 100 µM

**Q:** Please report EC50 for the following compound: CC(C)OC(=O)[C@H](C)NP(=O)(OC[C@@]1(F)O[C@@H](n2ccc(=O)[nH]c2=O)[C@@]2(CCS2)[C@@H]1O)Oc1ccccc1 (stereo partly shown)
**A:** 85 µM

**Q:** Please report EC50 for the following compound: CC(C)OC(=O)[C@H](C)NP(=O)(OC[C@@]1(F)O[C@@H](n2ccc(N)nc2=O)[C@@]2(CCS2)[C@@H]1O)Oc1ccccc1 (stereo partly shown)
**A:** > 100 µM

**Q:** Please report EC50 for the following compound: [N-]=[N+]=N[C@]1(CO)O[C@@H](n2ccc(=O)[nH]c2=O)[C@@]2(CCS2)[C@@H]1O
**A:** > 100 µM

**Q:** Please report EC50 for the following compound: Nc1ccn([C@@H]2O[C@H](CO)[C@@H](O)[C@]23CCS3)c(=O)n1
**A:** > 100 µM

====

# System: CHIKV strain S27
# experimentalDetails: CHIKV CPE inhibition assay in Huh7 cells
# Type: cell-based
# condition: Chikungunya virus, Huh-7; Table 1C; comparison with spiro-oxetane derivatives; read-out: CHIKV, Huh7 (EC50)
quantityKind: pEC50
Convention used: pEC50 is expressed as -log10 of the molar concentration.

compound	observedValue
CC(C)OC(=O)[C@H](C)NP(=O)(OC[C@@]1(F)O[C@@H](n2ccc(=O)[nH]c2=O)[C@@]2(CCS2)[C@@H]1O)Oc1ccccc1 (stereo partly shown)	5.52

**Q:** Please report pEC50 for the following compound: CC(C)OC(=O)[C@H](C)NP(=O)(OC[C@H]1O[C@@H](n2ccc(=O)[nH]c2=O)[C@@]2(CCS2)[C@@H]1O)Oc1ccccc1 (stereo partly shown)
**A:** 4.74

====

# targetEntity: UniProtKB Q9WMX2
# Sequence (Q9WMX2 2420-3010): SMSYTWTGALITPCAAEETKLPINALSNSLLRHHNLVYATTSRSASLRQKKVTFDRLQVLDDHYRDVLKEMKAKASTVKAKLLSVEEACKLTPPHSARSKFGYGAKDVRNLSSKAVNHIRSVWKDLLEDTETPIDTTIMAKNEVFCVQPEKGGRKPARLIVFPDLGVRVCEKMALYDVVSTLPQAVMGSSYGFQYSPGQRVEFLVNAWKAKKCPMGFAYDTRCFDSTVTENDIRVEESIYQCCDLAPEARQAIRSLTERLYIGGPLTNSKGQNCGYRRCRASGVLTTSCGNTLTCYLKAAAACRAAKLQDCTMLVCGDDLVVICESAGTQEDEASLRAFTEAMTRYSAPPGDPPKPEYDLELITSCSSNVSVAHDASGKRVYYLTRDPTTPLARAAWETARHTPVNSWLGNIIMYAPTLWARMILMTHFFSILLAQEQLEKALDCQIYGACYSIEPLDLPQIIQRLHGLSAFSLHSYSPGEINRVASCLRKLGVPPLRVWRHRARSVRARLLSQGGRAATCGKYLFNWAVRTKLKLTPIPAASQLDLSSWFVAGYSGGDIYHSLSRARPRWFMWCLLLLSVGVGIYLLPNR
quantityKind: pIC50
Convention used: pIC50 is expressed as -log10 of the molar concentration.

Examples with their reported pIC50 follow.
molecule	pIC50
Nc1ccn([C@@H]2O[C@H](COP(=O)(O)OP(=O)(O)OP(=O)(O)O)[C@@H](O)[C@]23CCS3)c(=O)n1 [Compound 59]	6.49
Nc1ccn([C@@H]2O[C@](F)(COP(=O)(O)OP(=O)(O)OP(=O)(O)O)[C@@H](O)[C@]23CCS3)c(=O)n1 [Compound 61]	6.80

Below: the item to evaluate.
**Q:** Enter pIC50 (test system UniProtKB Q9WMX2) for [N-]=[N+]=N[C@]1(COP(=O)(O)OP(=O)(O)OP(=O)(O)O)O[C@@H](n2ccc(=O)[nH]c2=O)[C@@]2(CCS2)[C@@H]1O [Compound 62]
**A:** 6.25

====

# Test system: HCV replicon (NS3-NS5B regions of HCV type 1b) in Huh-7 luc/neo cells
# experimentalDetails: HCV replicon assay (Huh-Luc cells, luciferase read-out)
# Format: cell-based
# condition: Hepatitis C virus, Huh-7, 72 h; Table 1A; Huh-Luc replicon cells, 3 days; read-out: HCV Huh-7 (EC50)
pEC50: −log10 of the molar value.
quantityKind: pEC50

compound	pEC50
CC(C)OC(=O)[C@H](C)NP(=O)(OC[C@@]1(F)O[C@@H](n2ccc(=O)[nH]c2=O)[C@@]2(CCS2)[C@@H]1O)Oc1ccccc1 (some centres unmarked)	5.70
[N-]=[N+]=N[C@]1(CO)O[C@@H](n2ccc(=O)[nH]c2=O)[C@@]2(CCS2)[C@@H]1O	< 4.00
CC(C)OC(=O)C(C)NP(=O)(OC[C@@]1(N=[N+]=[N-])O[C@@H](n2ccc(=O)[nH]c2=O)[C@@]2(CCS2)[C@@H]1O)Oc1ccccc1 (stereo in doubt)	5.30

**Q:** Please report pEC50 for the following compound: CC(C)C(=O)OC[C@H]1O[C@@H](n2ccc(=O)[nH]c2=O)[C@@]2(CCS2)[C@@H]1OC(=O)C(C)C
**A:** < 4.00

**Q:** Please report pEC50 for the following compound: O=c1ccn([C@@H]2O[C@]3(F)CO[P@@](=O)(NC4CCC4)O[C@H]3[C@]23CCS3)c(=O)[nH]1 [Compound 40b]
**A:** < 4.00

**Q:** Please report pEC50 for the following compound: CC(C)OC(=O)[C@H](C)NP(=O)(OC[C@H]1O[C@@H](n2ccc(N)nc2=O)[C@@]2(CCS2)[C@@H]1O)Oc1ccccc1 (some centres unmarked)
**A:** < 4.30

**Q:** Please report pEC50 for the following compound: Nc1ncnc2c1ncn2[C@@H]1O[C@H](CO)[C@@H](O)[C@]12CCS2
**A:** < 4.30

**Q:** Please report pEC50 for the following compound: O=c1ccn([C@@H]2O[C@H](CO)[C@@H](O)[C@]23CCS3)c(=O)[nH]1
**A:** < 4.00

====

# System: CHIKV strain S27
# experimentalDetails: CHIKV CPE inhibition assay in Huh7 cells
# Format: cell-based
# condition: Chikungunya virus, Huh-7, 48 h; Table 1A; Huh7 cells, MOI 0.25, 2 days; read-out: CHIKV Huh-7 (EC50)
pEC50: −log10 of the molar value.
quantityKind: pEC50

Examples with their reported pEC50 follow.
molecule	quantityKind	observedValue
CC(C)OC(=O)[C@H](C)NP(=O)(OC[C@@]1(F)O[C@@H](n2ccc(N)nc2=O)[C@@]2(CCS2)[C@@H]1O)Oc1ccccc1 (stereo partly drawn)	pEC50	< 4.00
CC(C)OC(=O)C(C)NP(=O)(OC[C@@]1(N=[N+]=[N-])O[C@@H](n2ccc(=O)[nH]c2=O)[C@@]2(CCS2)[C@@H]1O)Oc1ccccc1 (stereo in doubt)	pEC50	< 4.00
CC(C)OC(=O)[C@H](C)NP(=O)(OC[C@@]1(F)O[C@@H](n2ccc(=O)[nH]c2=O)[C@@]2(CCS2)[C@@H]1O)Oc1ccccc1 (stereo partly drawn)	pEC50	5.52
CC(C)OC(=O)[C@H](C)NP(=O)(OC[C@H]1O[C@@H](n2ccc(=O)[nH]c2=O)[C@@]2(CCS2)[C@@H]1O)Oc1ccccc1 (stereo partly drawn)	pEC50	4.74
O=c1ccn([C@@H]2O[C@](F)(COP(=O)(NC3CCC3)Oc3ccc(Cl)cc3)[C@@H](O)[C@]23CCS3)c(=O)[nH]1 (stereo partly drawn)	pEC50	< 4.00
CC(C)OC(=O)[C@H](C)NP(=O)(OC[C@H]1O[C@@H](n2ccc(N)nc2=O)[C@@]2(CCS2)[C@@H]1O)Oc1ccccc1 (stereo partly drawn)	pEC50	< 4.30

**Q:** Please report pEC50 for the following molecule: O=c1ccn([C@@H]2O[C@]3(F)CO[P@](=O)(NC4CCC4)O[C@H]3[C@]23CCS3)c(=O)[nH]1 [Compound 40a]
**A:** < 4.00

**Q:** Please report pEC50 for the following molecule: O=c1ccn([C@@H]2O[C@]3(F)CO[P@@](=O)(NC4CCC4)O[C@H]3[C@]23CCS3)c(=O)[nH]1 [Compound 40b]
**A:** < 4.00

**Q:** Please report pEC50 for the following molecule: CCCCOC(=O)[C@H](C)NP(=O)(OC[C@@]1(F)O[C@@H](n2ccc(=O)[nH]c2=O)[C@@]2(CCS2)[C@@H]1O)Oc1ccccc1 (stereo partly drawn)
**A:** 5.52
